EC90 by entry:
System: PBMC
Assay: Antiviral activity against wild type HIV virus(xxBRU) in Human peripheral blood mononuclear (PBM) cells
Type: functional
Property Label: EC90 (nM)

> print(dat)
                                   molecule  experimental.system  reported.measurement
1  Nc1nc(=O)n([C@@H]2C=C(F)[C@H](CO)S2)cc1F                 PBMC                   350
2   Nc1ccn([C@@H]2C=C(F)[C@H](CO)S2)c(=O)n1                 PBMC                  1700
3  Cc1cn([C@H]2C[C@H](N=[N+]=[N-])[C@@H](CO)O2)c(=O)[nH]c1=O [ZIDOVUDINE]                 PBMC                    10
4  Nc1ccn([C@@H]2CS[C@H](CO)O2)c(=O)n1 [LAMIVUDINE]                 PBMC                    80

###

Form field: pEC50 (one value per entry).
Test system: PBMC
Experiment: Anti-HIV activity in Human peripheral blood mononuclear (PBM) cells
Format: functional, cell-based
pEC50: −log10 of the molar value.
Property Label: pEC50

> print(dat)
                                 smiles.code  experimental.system  reported.measurement
 1    OC[C@@H]1S[C@H](n2cnc3c(O)ncnc32)C=C1F                 PBMC                < 4.00
 2   Nc1ccn([C@H]2C=C(F)[C@@H](CO)S2)c(=O)n1                 PBMC                < 4.00
 3  O=c1ccn([C@H]2C=C(F)[C@@H](CO)S2)c(=O)[nH]1                 PBMC                < 4.00
 4  Cc1cn([C@H]2C=C(F)[C@@H](CO)S2)c(=O)[nH]c1=O                 PBMC                < 4.00
 5  Nc1nc(O)c2ncn([C@@H]3C=C(F)[C@H](CO)S3)c2n1                 PBMC                  4.36
 6    Nc1ncnc2c1ncn2[C@H]1C=C(F)[C@@H](CO)S1                 PBMC                < 4.00
 7    OC[C@H]1S[C@@H](n2cnc3c(O)ncnc32)C=C1F                 PBMC                < 4.00
 8    Nc1ncnc2c1ncn2[C@@H]1C=C(F)[C@H](CO)S1                 PBMC                  4.83
 9  Nc1nc(=O)n([C@@H]2C=C(F)[C@H](CO)S2)cc1F                 PBMC                  7.51
10  Cc1cn([C@@H]2C=C(F)[C@H](CO)S2)c(=O)[nH]c1=O                 PBMC                < 4.00
11  Nc1nc(O)c2ncn([C@H]3C=C(F)[C@@H](CO)S3)c2n1                 PBMC                  4.63

The origin of these recorded values is ChEMBL document CHEMBL1148437.
